From: ChEMBL document CHEMBL1121402

test: Screening of Ehrlich ascites carcinoma cells in mice at 20 mg/kg/day intraperitoneally.; assay type: functional, Mus musculus; conditions: route intraperitoneal
Exercise: for every item that follows, state its recorded ascrit.

Which ascrit reading was recorded for the compound Cc1ccc(S(=O)(=O)NCCC(=O)CCl)cc1 ?
0.1

Which ascrit reading was recorded for the compound O=c1[nH]cc(F)c(=O)[nH]1 ?
32.4

Which ascrit reading was recorded for the compound C=COC(=O)C(Cc1ccc(O)cc1)NS(=O)(=O)c1ccc(C)cc1 (stereo not drawn) ?
17.5

Which ascrit reading was recorded for the compound Cc1ccc(S(=O)(=O)NCCC(=O)C=[N+]=[N-])cc1 ?
44

Which ascrit reading was recorded for the compound Cc1ccc(S(=O)(=O)NC(C(=O)C=[N+]=[N-])C(C)C)cc1 (stereo not drawn) ?
52.7

Which ascrit reading was recorded for the compound Cc1ccc(S(=O)(=O)NCCCCCC(=O)CCl)cc1 ?
0.01

Which ascrit reading was recorded for the compound Cc1ccc(S(=O)(=O)NC(Cc2ccc(O)cc2)C(=O)OCC#N)cc1 (stereo not drawn) ?
15.8

Which ascrit reading was recorded for the compound Cc1ccc(S(=O)(=O)NC(C)C(=O)CCl)cc1 (stereo not drawn) ?
46.5

Which ascrit reading was recorded for the compound Cc1ccc(S(=O)(=O)N[C@H](C)C(=O)CCl)cc1 ?
18.9

Which ascrit reading was recorded for the compound N[C@@H](Cc1ccc(N(CCCl)CCCl)cc1)C(=O)O ?
0.1

Which ascrit reading was recorded for the compound Cc1ccc(S(=O)(=O)NC(CC(C)C)C(=O)C=[N+]=[N-])cc1 (stereo not drawn) ?
42.5

Which ascrit reading was recorded for the compound Cc1ccc(S(=O)(=O)NCCCCCC(=O)C=[N+]=[N-])cc1 ?
42.5

Which ascrit reading was recorded for the compound Cc1ccc(S(=O)(=O)N2C(=O)CCC2C(=O)C=[N+]=N)cc1 (stereo not drawn) ?
32
